Examples of molecules with documented # Reactions (Number Of Pathways Having at Least One Enzyme and One Compound Perturbed) follow.
system: Saccharomyces cerevisiae wild type strain BY4743; test: Combined gene expression and metabolite data mapped to KEGG reactions and pathways (AF1); assay type: cell-based; conditions: yeast
Number, no unit, nothing else.

Solved cases (3 shown):
CC(=O)N1CCN(c2ccc(OCC3COC(Cn4ccnc4)(c4ccc(Cl)cc4Cl)O3)cc2)CC1 (stereo not shown)
24
OC(Cn1cncn1)(Cn1cncn1)c1ccc(F)cc1F
15
C[C@@H]1[C@H](O)[C@@H](C)/C=C/C=C/C=C/C=C/C=C/C=C/C=C/[C@H](O[C@@H]2O[C@H](C)[C@@H](O)[C@H](N)[C@@H]2O)C[C@@H]2O[C@](O)(C[C@@H](O)C[C@@H](O)[C@H](O)CC[C@@H](O)C[C@@H](O)CC(=O)O[C@H]1C)C[C@H](O)[C@H]2C(=O)O
37

In the following, a different molecule is considered.
stdin: Record request: # Reactions (Number Of Pathways Having at Least One Enzyme and One Compound Perturbed) value, item CC[C@@H]([C@H](C)O)n1ncn(-c2ccc(N3CCN(c4ccc(OC[C@@H]5CO[C@@](Cn6cncn6)(c6ccc(F)cc6F)C5)cc4)CC3)cc2)c1=O
stdout: 3
